This collection of values is drawn from patent US10188756B2.

assay: Plasma protein binding assay, baboon plasma; type: in vitro ADME; conditions: method derives % unbound, read-out: plasma protein binding (PPB) (converted)
measurement.label: fraction unbound at 10 min
Please give the numeric answer without any surrounding text.

Task item: Requested field: fraction unbound at 10 min. Item: [11CH3]N(Cc1ccc(/C=C/C(=O)NO)cc1)CC12CC3CCC(CC(C3)C1)C2 [[11C]CN133]
Reply: 0.986

====

Endpoint: log10 IC50. System: HDAC3 (Homo sapiens (Human), UniProt O15379). Items follow.
Sequence (O15379 whole entry): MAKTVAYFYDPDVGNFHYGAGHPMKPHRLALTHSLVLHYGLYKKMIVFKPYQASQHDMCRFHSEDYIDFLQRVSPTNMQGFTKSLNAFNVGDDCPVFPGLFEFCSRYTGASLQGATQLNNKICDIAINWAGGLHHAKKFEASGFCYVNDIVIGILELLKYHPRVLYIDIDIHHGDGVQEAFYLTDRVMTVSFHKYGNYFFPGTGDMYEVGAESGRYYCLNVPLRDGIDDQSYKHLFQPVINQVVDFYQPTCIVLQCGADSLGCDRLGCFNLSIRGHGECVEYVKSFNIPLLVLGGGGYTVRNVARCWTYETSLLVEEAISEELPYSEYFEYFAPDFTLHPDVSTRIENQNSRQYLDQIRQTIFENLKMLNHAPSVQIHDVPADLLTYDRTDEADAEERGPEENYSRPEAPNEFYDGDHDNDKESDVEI
Sequence (Q9Y618 395-489 partner): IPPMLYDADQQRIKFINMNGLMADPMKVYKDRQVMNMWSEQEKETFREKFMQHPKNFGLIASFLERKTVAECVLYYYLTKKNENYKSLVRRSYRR
Response schema: value (number) is log10 of IC50 in units of nM.

Task item: Would you kindly share the measured log10 IC50 for "CN(C)CCOc1ccc2c(c1)C(c1ccc(C(=O)NO)cc1)=Nc1ccccc1O2" ?
Reply: 1.99

Task item: Then this compound: "CNc1ccc(C(=O)NCCCCCCC(=O)NO)cc1"
Reply: 0.76

Task item: Another compound: "CCCCc1nc2cc(/C=C/C(=O)NO)ccc2n1CCN(C)C"
Reply: 0.28

Task item: Then what about the compound "COc1ccc(/C=C/C(=O)NO)cc1" ?
Reply: 2.38

====

The following molecules each carry a recorded IC50 for HDAC6 (Homo sapiens (Human), UniProt Q9UBN7).
Give the value in nM but do not write nM after it.

{"molecule": "CN(Cc1ccc(/C=C/C(=O)NO)cc1)CC12CC3CC(CC(C3)C1)C2 [CN133]", "reading.unit": "nM", "IC50": 4.1}

Task item: Consider the molecule CN(CCc1ccccc1)S(=O)(=O)c1cccc(/C=C/C(=O)NO)c1 [CN89] and give its measured IC50.
Reply: 5

Task item: Param item: Cn1cc(CCNCc2ccc(/C=C/C(=O)NO)cc2)c2ccccc21 [CN107]
Reply: 1.6

Task item: O=C(/C=C/c1ccccc1)NO [CN86] ?
Reply: 21.7

Task item: O=C(/C=C/c1ccc(CNCC2CCCCC2)c(F)c1)NO [CN166] ?
Reply: 11.7

Task item: And for COc1ccc2c(c1)C(=O)N(CCCCCC(=O)NO)c1ccccc1S2 [CN112] ?
Reply: 2.3

Task item: One more molecule: COc1ccc2c(c1)C(=O)N(CCCCCC(=O)NO)c1ccccc1S2(=O)=O [CN113]
Reply: 1.2

Task item: Consider next the molecule CN(Cc1ccc(/C=C/C(=O)NO)cc1F)CC1CCCCC1 [CN167] in the same way.
Reply: 18.7

====

pIC50, HDAC9 (Homo sapiens (Human)), per-entry values.
pIC50: −log10 of the molar value.

{"smiles.text": "O=C(/C=C/c1ccccc1)NO", "pIC50": "< 4.30"}
{"smiles.text": "O=C(/C=C/c1ccc(CNCC2CCCCC2)cc1)NO", "pIC50": "< 5.00"}
{"smiles.text": "CCCCc1nc2cc(/C=C/C(=O)NO)ccc2n1CCN(C)C", "pIC50": "< 4.30"}
{"smiles.text": "CN(CCc1ccccc1)S(=O)(=O)c1cccc(/C=C/C(=O)NO)c1", "pIC50": "< 5.00"}
{"smiles.text": "Cn1cc(CCNCc2ccc(/C=C/C(=O)NO)cc2)c2ccccc21", "pIC50": 5.31}

Task item: Fill blank: measured pIC50 of the molecule "CN(Cc1ccc2c(c1)CCC(C(=O)NO)=C2)CC12CC3CC(CC(C3)C1)C2" is ____.
Reply: < 5.00

Task item: Same lookup for "COc1ccc(/C=C/C(=O)NO)cc1" , please.
Reply: < 4.15

Task item: And for "CN(Cc1ccc(/C=C/C(=O)NO)cc1)CC12CC3CC(CC(C3)C1)C2" ?
Reply: < 4.82

Task item: Repeat for the following molecule: "COc1ccc2c(c1)C(=O)N(CCCCCC(=O)NO)c1ccccc1S2"
Reply: 5.83
